- System: Colon cancer organoid
- test_summary: Identification of compartment-specific drug sensitivities in O06 CRC organoid-stroma F06 CAF co-cultures. Organoid is transduced with Lucferase2-P2A-EGFP lentivirus, fibroblast with Renilla-dsRed lentivirus. Dual-Glo Luciferase assay is used to report viability data.
- Assay type: functional, Homo sapiens
- Parameters: dose or concentration left out as unconfirmed
- measurement_conditions: Transduced with Renilla-dsRed lentivirus
Measured Cell Viability of individual entries
measurement_kind: Cell Viability (%)

> print(dat)
                                    compound  result.number
 1  Nc1ccc(C(=O)Nc2cccc(-c3nc(N4CCOCC4)c4oc5ncccc5c4n3)c2)cn1        81.5262
 2  O=C1CCc2cc(Nc3cc(OC4CCOCC4)c([N+](=O)[O-])cc3Cl)ccc2N1        100.938
 3  CN(C(=O)c1ccccc1)c1cc(N(C)c2ccc3c(c2)CCc2ccc(C(=O)NCCN4CCOCC4)cc2C3=O)ccc1F        69.6878
 4  O=C(NCCCN1CCOC1=O)c1cnc(NCc2cc(Br)ccc2Br)nc1NC1CCCC1        99.9468
 5  CN(C)C(=O)c1ccc(-c2cc(C(=O)N[C@@H]3CCc4ccccc43)no2)cc1O        93.2478
 6  Cc1sc2c(c1C)C(c1ccc(Cl)cc1)=N[C@H](CC(=O)OC(C)(C)C)c1nnc(C)n1-2        109.974
 7  CC1=C(C)C(=O)C(C(C)(C)CC(=O)N(CCCCSC[C@H]2O[C@@H](n3cnc4c(N)ncnc43)[C@H](O)[C@@H]2O)Cc2cccc(-c3ccc(Cl)cc3)c2)=C(C)C1=O        138.552
 8  c1ccc2oc(-c3csc(C4CCN(Cc5nc6ncccc6[nH]5)CC4)n3)cc2c1         124.83
 9  CC(=O)Nc1ncc(CN2CCC[C@H](Cc3cc(C)nc(C)c3)C2)s1        172.928
10  Cn1cncc1[C@@](O)(COc1ccc(C#N)cc1-c1ccc(OC(F)(F)F)cc1)c1ccc(C#N)cc1        139.827
11        Nc1nc(NCc2ccccc2)nc(-c2ccccc2CO)n1        107.856
12       COc1ccc(Cn2ccc3ccc(C(=O)NO)cc32)cc1        129.424
13  CCCOc1ccn2c(C(C)=O)cc(-c3ccccc3S(C)(=O)=O)c2c1        129.269
14  C=CC(=O)Nc1ccc2[nH]c(=O)n(C3CCN(Cc4ccc(-c5nc6cc[nH]c(=O)c6cc5-c5ccccc5)cc4)CC3)c2c1        132.383
15  COc1cc2ncn(-c3cc(OCc4ccccc4C(F)(F)F)c(C(N)=O)s3)c2cc1OC [GW843682X]        182.458
16  C=CC(=O)N1CCC([C@@H]2CCNc3c(C(N)=O)c(-c4ccc(Oc5ccccc5)cc4)nn32)CC1        136.235
17  Cn1nc(C(=O)NCc2ccc(C(=O)O)cc2)cc1-c1ccc2[nH]ccc2c1        69.3241

###

- Test system: Colon cancer organoid
- test_summary: Identification of compartment-specific drug sensitivities in O20 CRC organoid-stroma F20 CAF co-cultures. Organoid is transduced with Lucferase2-P2A-EGFP lentivirus, fibroblast with Renilla-dsRed lentivirus. Dual-Glo Luciferase assay is used to report viability data.
- Format: functional, Homo sapiens
- Parameters: dose or concentration left out as unconfirmed
- measurement_conditions: Transduced with Lucferase2-P2A-EGFP lentivirus
Measured Cell Viability of individual entries
measurement_kind: Cell Viability (%)

> print(dat)
                                    compound           study.system  measurement.kind  units.symbol  result.number
 1     COc1cc2c(cc1OCCCN1CCCC1)N=C(N)C21CCC1  Colon cancer organoid    Cell Viability             %        76.3645
 2  CCCc1cc(C)[nH]c(=O)c1CNC(=O)c1cc(-c2ccc(N3CCN(C(C)C)CC3)nc2)cc2c1cnn2C(C)C  Colon cancer organoid    Cell Viability             %        59.2451
 3  CCOc1ccc(S(=O)(=O)Nc2ccc(Cl)cc2C#Cc2cnc(C(=O)[O-])cc2OC)c2ncccc12.[K+]  Colon cancer organoid    Cell Viability             %        110.493
 4  Cl.O=C([C@@H](Cc1cccc(C(F)(F)F)c1)NS(=O)(=O)c1cc(F)c2c(c1)CCNC2)N1CCCC1  Colon cancer organoid    Cell Viability             %        153.218
 5  Cc1noc(C)c1-c1cnc2c(-c3ccc(C(=O)O)cc3)cn([C@@H](C)c3ccccn3)c2c1 [PLX-51107]  Colon cancer organoid    Cell Viability             %        17.7697
 6  Cn1cc(CNCC2CCN(c3ncc(C(=O)NO)cn3)CC2)c2ccccc21 [QUISINOSTAT]  Colon cancer organoid    Cell Viability             %          1.348
 7  CN(C)CC#Cc1ccc(OCCCc2sc(N3CCc4cccc(C(=O)Nc5nc6ccccc6s5)c4C3)nc2C(=O)O)c(F)c1 [A-1155463]  Colon cancer organoid    Cell Viability             %         1.1769
 8  O=C1[C@H](Cc2ccc(O)cc2)N2C(=O)CCN(C(=O)NCc3ccccc3)[C@H]2CN1Cc1cccc2ccccc12  Colon cancer organoid    Cell Viability             %        90.1159
 9  Cn1cc(-c2ccc3occ(-c4cccc(-c5ccncc5)c4)c3n2)cn1  Colon cancer organoid    Cell Viability             %        65.7439
10  Cc1cc(NC(=O)c2cccc(S(F)(F)(F)(F)F)c2)cc(-n2ccn3nc(-c4cccnc4)cc23)c1 [BAY-309]  Colon cancer organoid    Cell Viability             %        122.672
11  Cc1c(NC(=O)COc2ccc(Cl)cc2C(=O)c2cc(F)cc(C(F)(F)F)c2)ccc(C(=O)O)c1F [BI 2540]  Colon cancer organoid    Cell Viability             %         66.158
12  CN(C)C(=O)c1ccc(-c2cc(C(=O)N(C)C3CCCC3)no2)cc1O  Colon cancer organoid    Cell Viability             %        123.545
13  Cc1cc(=O)n(C)c2cc(N3C(=O)CC[C@H](NS(=O)(=O)CC(C)C)[C@H]3c3ccc(Cl)cc3)ccc12  Colon cancer organoid    Cell Viability             %        108.181
14  Cn1c(=O)[nH]c2cc(N3C(=O)c4cccc5c(CCCO)ccc(c45)C3=O)ccc21  Colon cancer organoid    Cell Viability             %        127.541
15  CN([C@@H]1CCc2c(CC(=O)O)c3cc(S(C)(=O)=O)ccc3n2C1)S(=O)(=O)c1ccc(F)cc1 [CRTH2-negative-control]  Colon cancer organoid    Cell Viability             %        107.561
16  CC1=C(C)C(=O)C(C(C)(C)CC(=O)N(CCCCSC[C@H]2O[C@@H](n3cnc4c(N)ncnc43)[C@H](O)[C@@H]2O)Cc2cccc(-c3ccc(Cl)cc3)c2)=C(C)C1=O  Colon cancer organoid    Cell Viability             %        100.369
